experiment: Metabolic stability in human hepatic microsome; format: in vitro ADME; details: human, microsomes, pH 7.4, CL NADPH(+)
Starred links: 1 amine or outer side, 2 acyl side, 3 side chain; linkers in the order of their positions; H or OH if unused. Positions of bridges follow the written chain, without caps; N, C: chain ends. Non-standard residues stand in square brackets, D forms with d. Residues, ends and D or L forms follow the SMILES beside them. ξ: configuration not given here. *: point of attachment. NMeF = CN[C@@H](Cc1ccccc1)C(=O)O; NMeI = CC[C@H](C)[C@H](NC)C(=O)O; NMeβAla = CN(CCC(=O)[*:2])[*:1]; NMeξIle = CC[C@H](C)C(NC)C(=O)O; NMeL = CN[C@@H](CC(C)C)C(=O)O; NMeV = CN[C@H](C(=O)O)C(C)C; NMeA = CN[C@@H](C)C(=O)O; Piperidide = C1CCN(*)CC1; dNMeA = CN[C@H](C)C(=O)O; β3hA = C[C@H](N)CC(=O)O; Sar = CNCC(=O)O; tBu = CC(C)(C)*
valueType: microsomal CLint at 1 uM (µL/min/mg)
Response body: numeric value in µL/min/mg, unit text excluded.

Reference set, count: 3
compound | microsomal CLint at 1 uM, µL/min/mg
CC(C)C[C@H]1C(=O)N(C)[C@@H](Cc2ccccc2)C(=O)NCC(=O)N[C@H](C(=O)N2CCCCC2)CC(=O)N(C)CCC(=O)N[C@@H]([C@@H](C)O)C(=O)N(C)[C@@H](C)C(=O)N[C@@H](COC(C)(C)C)C(=O)N(C)[C@@H](Cc2ccccc2)C(=O)N1C [DP-80] ([NMeβAla]T[NMeA]S(tBu)[NMeF][NMeL][NMeF]GD-Piperidide; lactam N-9) | 43
CC[C@H](C)C1C(=O)N[C@H](C(=O)N2CCCCC2)CC(=O)N(C)CC(=O)N(C)CC(=O)N[C@@H]([C@@H](C)O)C(=O)N(C)[C@@H](Cc2ccccc2)C(=O)N(C)[C@@H](CC(C)C)C(=O)N[C@@H](COC(C)(C)C)C(=O)N(C)[C@@H](CC(C)C)C(=O)N1C (stereo partly drawn) [DP-60] ([Sar][Sar]T[NMeF][NMeL]S(tBu)[NMeL][NMeξIle]D-Piperidide; lactam N-9) | 145
CC(C)C[C@H]1C(=O)N(C)[C@@H](C)C(=O)N[C@@H](C)C(=O)N[C@@H](C)CC(=O)N(C)CCC(=O)N(C)[C@@H](Cc2ccccc2)C(=O)N(C)[C@@H](C)C(=O)N[C@@H]([C@@H](C)O)C(=O)N(C)[C@@H](C)C(=O)N[C@@H](Cc2ccccc2)C(=O)N(C)[C@@H](C(C)C)C(=O)N1C [DP-763] (cyclo(A[β3hA][NMeβAla][NMeF][NMeA]T[NMeA]F[NMeV][NMeL][NMeA])) | 15

Per the record, CC[C@H](C)[C@H]1C(=O)N[C@H](C(=O)N2CCCCC2)CC(=O)N(C)[C@H](C)C(=O)N(C)[C@@H](Cc2ccccc2)C(=O)N(C)[C@@H](CC(C)C)C(=O)N[C@@H]([C@@H](C)O)C(=O)N(C)CC(=O)N[C@@H](COC(C)(C)C)C(=O)N(C)[C@@H](CC(C)C)C(=O)N1C [DP-81] ([dNMeA][NMeF][NMeL]T[Sar]S(tBu)[NMeL][NMeI]D-Piperidide; lactam N-9) has microsomal CLint at 1 uM of 38

Query CC[C@H](C)[C@H](NC(=O)[C@@H]1CC(=O)N[C@@H](C)C(=O)N[C@@H]([C@@H](C)O)C(=O)N[C@@H](CC(C)C)C(=O)N2CCC[C@H]2C(=O)N[C@@H](Cc2ccccc2)C(=O)N(C)[C@@H](Cc2ccccc2)C(=O)N(C)[C@@H](C(C)C)C(=O)N[C@@H](C)C(=O)N(C)[C@@H](CC(C)C)C(=O)N1)C(=O)N1CCCCC1 [DP-44] (ATLPF[NMeF][NMeV]A[NMeL]DI-Piperidide; lactam N-10) yields microsomal CLint at 1 uM of 59
